target: UniProt:O14965; experiment: Inhibition of Aurora A kinase at 50 uM
QUANTITY: inhibition (%)

a. O=C1c2[nH]c3cc(-c4ccco4)nn3c(=O)c2CN1CCCc1ccccc1
b. O=C1c2c(c(=O)n3nc(-c4ccco4)cc3n2CCN2CCOCC2)CN1Cc1ccccc1
Req: Choose between a and b : whose measured inhibition value is numerically larger? Response format: the label of the selected entry.
Resp: a

1. COc1cc(CN2Cc3c([nH]c4cc(-c5ccco5)nn4c3=O)C2=O)cc(OC)c1
2. O=C1c2[nH]c3ccnn3c(=O)c2CN1Cc1ccccc1
Req: # min-compare on inhibition between 1 and 2 Response format: the label of the selected entry.
Resp: 2

P. O=C1c2[nH]c3cc(-c4ccco4)nn3c(=O)c2CN1Cc1cccc2ccccc12
Q. Cc1cc2[nH]c3c(c(=O)n2n1)CN(Cc1ccccc1)C3=O
Req: # min-compare on inhibition between P and Q Response format: the label of the selected entry.
Resp: Q
(Q: 20.8%, P: 79.9%)

* * *

Target: Aurora kinase A (Homo sapiens)
Sequence (whole entry): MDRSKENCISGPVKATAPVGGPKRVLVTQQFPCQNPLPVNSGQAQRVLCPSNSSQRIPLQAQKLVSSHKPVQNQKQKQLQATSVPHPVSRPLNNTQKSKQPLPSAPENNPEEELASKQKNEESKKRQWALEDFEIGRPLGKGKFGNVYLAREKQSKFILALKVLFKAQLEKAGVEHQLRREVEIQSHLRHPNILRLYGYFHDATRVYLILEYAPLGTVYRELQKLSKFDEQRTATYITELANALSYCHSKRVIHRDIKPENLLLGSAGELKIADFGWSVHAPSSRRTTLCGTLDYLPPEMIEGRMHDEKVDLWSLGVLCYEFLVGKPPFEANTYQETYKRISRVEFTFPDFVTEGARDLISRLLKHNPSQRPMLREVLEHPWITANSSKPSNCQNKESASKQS
Test: Inhibition of Aurora A kinase at 50 uM
QUANTITY: inhibition (%)

# count of solved cases: 9
{"SMILES TEXT": "O=C1c2[nH]c3cc(-c4ccco4)nn3c(=O)c2CN1Cc1ccc2c(c1)OCO2", "VALUE OBSERVED": 75.2}
{"SMILES TEXT": "O=C1c2[nH]c3cc(-c4ccco4)nn3c(=O)c2CN1Cc1ccccn1", "VALUE OBSERVED": 79.2}
{"SMILES TEXT": "COc1ccccc1CN1Cc2c([nH]c3cc(-c4ccco4)nn3c2=O)C1=O", "VALUE OBSERVED": 95.1}
{"SMILES TEXT": "O=C1c2[nH]c3cc(-c4cccs4)nn3c(=O)c2CN1Cc1ccccc1", "VALUE OBSERVED": 72.3}
{"SMILES TEXT": "O=C1c2nc3cc(-c4ccccc4)nn3c(O)c2CN1Cc1ccccc1", "VALUE OBSERVED": 47.2}
{"SMILES TEXT": "COc1ccc(CN2Cc3c([nH]c4cc(-c5ccco5)nn4c3=O)C2=O)cc1OC", "VALUE OBSERVED": 70.8}
{"SMILES TEXT": "O=C1c2[nH]c3cc(-c4ccco4)nn3c(=O)c2CN1CCN1CCOCC1", "VALUE OBSERVED": 10.7}
{"SMILES TEXT": "O=C1c2[nH]c3cc(-c4ccco4)nn3c(=O)c2CN1CCc1ccccc1", "VALUE OBSERVED": 83.9}
{"SMILES TEXT": "O=C1c2[nH]c3cc(-c4ccco4)nn3c(=O)c2CN1Cc1ccc(F)cc1", "VALUE OBSERVED": 89.8}

1. O=C1c2[nH]c3cc(-c4ccco4)nn3c(=O)c2CN1c1ccccc1
2. Cn1c2c(c(=O)n3nc(-c4ccco4)cc13)CN(Cc1ccccc1)C2=O
Req: Choose between 1 and 2 : whose measured inhibition value is numerically larger? Response format: the label of the selected entry.
Resp: 1
